Origin of values: ChEMBL document CHEMBL5376015

test: in vitro; conditions: human, human liver microsomes
Description: Clearance in human liver microsomes
measured_parameter: microsomal CLint (µL/min/mg)

1: Cc1nn(C)c2c1-c1cnc(N)c(c1)O[C@H](C)c1cc(F)ccc1C(=O)N(C)C2
2: COc1ccc(F)cc1[C@@H](C)Oc1cc(-c2cnnn2C)cnc1N
3: CNC(=O)c1ccc(F)cc1[C@@H](C)Oc1nc(-c2cccnc2OC)cnc1N
[Q] Sort ascending by microsomal CLint. Thanks in advance for listing the labels in the requested order.
[A] 1, 2, 3
(1: 8.6 µL/min/mg, 2: 25 µL/min/mg, 3: 76 µL/min/mg)

###

assay: in vitro; conditions: mouse, mouse liver microsomes
Description: Half life in mouse liver microsomes
measured_parameter: half-life (min)

a: CN1C/C=C/CCOc2cccc(c2)-c2ccnc(n2)Nc2cccc(c2)C1 [ZOTIRACICLIB]
b: C1=N/C2=N/c3ccc(OCCN4CCCC4)c(c3)COC/C=C/COCc3cccc(c3)C(=C1)N2 [PACRITINIB]
[Q] I need your help: which of the pair a , b has higher half-life? I would appreciate it if you answered with the label of your choice.
[A] b

###

Heads up, these compounds all have IC50 values measured for Cytochrome P450 3A4 (Homo sapiens).

{"substance_smiles": "C1=N/C2=N/c3ccc(OCCN4CCCC4)c(c3)COC/C=C/COCc3cccc(c3)C(=C1)N2", "assay_result": "> 5 µM"}

Attention now turns to another entry.
[Q] Tell me reported IC50 for `COc1ccc2cc1COC/C=C/COCc1cc(ccc1OCCN1CCCC1)Nc1nccc-2n1` , tested with Cytochrome P450 3A4 (Homo sapiens).
Sequence (P08684 whole entry): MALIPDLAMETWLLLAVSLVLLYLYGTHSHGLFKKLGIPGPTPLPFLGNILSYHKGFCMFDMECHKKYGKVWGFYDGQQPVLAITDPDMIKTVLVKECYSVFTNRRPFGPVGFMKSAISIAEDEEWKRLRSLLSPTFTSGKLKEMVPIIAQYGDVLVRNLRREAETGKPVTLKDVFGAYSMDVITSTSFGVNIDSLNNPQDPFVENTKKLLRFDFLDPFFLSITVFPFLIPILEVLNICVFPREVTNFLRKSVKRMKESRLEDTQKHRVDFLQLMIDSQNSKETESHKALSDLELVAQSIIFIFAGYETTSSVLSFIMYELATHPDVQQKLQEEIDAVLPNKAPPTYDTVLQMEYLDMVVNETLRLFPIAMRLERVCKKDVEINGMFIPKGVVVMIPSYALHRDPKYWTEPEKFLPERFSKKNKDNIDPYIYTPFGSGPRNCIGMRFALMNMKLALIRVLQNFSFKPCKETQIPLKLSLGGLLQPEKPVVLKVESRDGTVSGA
[A] > 10 µM

###

target: ALK tyrosine kinase receptor (Homo sapiens, UniProt Q9UM73, L1196M)
Sequence (Q9UM73 19-1620 L1196M limits assumed): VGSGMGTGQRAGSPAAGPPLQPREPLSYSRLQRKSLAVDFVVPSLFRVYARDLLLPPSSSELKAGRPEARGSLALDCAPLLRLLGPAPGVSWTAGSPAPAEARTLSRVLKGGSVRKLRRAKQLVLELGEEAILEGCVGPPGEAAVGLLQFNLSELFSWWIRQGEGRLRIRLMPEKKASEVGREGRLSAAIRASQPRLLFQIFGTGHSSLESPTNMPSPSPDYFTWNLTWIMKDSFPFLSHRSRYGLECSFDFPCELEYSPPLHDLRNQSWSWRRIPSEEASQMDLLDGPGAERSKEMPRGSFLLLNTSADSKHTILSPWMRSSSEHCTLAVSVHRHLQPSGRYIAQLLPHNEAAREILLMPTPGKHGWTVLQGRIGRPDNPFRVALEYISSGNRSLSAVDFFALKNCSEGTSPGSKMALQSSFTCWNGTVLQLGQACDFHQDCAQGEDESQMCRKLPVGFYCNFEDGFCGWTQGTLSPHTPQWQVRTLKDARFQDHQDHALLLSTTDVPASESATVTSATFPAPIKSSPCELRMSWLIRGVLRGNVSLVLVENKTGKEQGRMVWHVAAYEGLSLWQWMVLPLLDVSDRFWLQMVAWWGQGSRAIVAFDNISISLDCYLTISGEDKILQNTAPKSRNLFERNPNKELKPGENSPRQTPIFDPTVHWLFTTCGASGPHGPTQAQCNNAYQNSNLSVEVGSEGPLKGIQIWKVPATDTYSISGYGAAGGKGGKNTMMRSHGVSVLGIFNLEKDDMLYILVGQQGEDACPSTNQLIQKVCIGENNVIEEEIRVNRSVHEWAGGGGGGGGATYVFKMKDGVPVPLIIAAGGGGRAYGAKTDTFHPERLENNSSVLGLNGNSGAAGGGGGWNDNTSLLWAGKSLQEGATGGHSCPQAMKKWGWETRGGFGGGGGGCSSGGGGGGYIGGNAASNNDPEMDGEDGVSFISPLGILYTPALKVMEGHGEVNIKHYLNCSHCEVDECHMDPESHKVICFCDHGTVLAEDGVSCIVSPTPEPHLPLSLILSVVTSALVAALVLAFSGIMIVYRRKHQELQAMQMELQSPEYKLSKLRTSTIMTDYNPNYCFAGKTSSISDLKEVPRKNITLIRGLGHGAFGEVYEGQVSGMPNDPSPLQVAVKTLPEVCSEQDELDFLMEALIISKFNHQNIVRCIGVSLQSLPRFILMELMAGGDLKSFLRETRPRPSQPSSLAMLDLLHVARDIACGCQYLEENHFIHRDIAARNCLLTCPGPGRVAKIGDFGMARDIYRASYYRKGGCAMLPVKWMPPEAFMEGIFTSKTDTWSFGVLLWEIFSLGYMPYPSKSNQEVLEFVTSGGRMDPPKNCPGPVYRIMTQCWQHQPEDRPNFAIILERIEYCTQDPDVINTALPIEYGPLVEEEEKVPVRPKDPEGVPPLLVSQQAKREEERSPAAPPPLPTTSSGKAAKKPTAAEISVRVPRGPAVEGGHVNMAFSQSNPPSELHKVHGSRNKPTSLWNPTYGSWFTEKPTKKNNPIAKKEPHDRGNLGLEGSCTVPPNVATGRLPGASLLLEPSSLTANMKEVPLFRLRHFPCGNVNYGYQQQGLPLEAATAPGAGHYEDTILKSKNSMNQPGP
measured_parameter: Ki (nM)
Just the number in nM, nothing appended.

[Q] Fill in the recorded Ki for this compound, with ALK tyrosine kinase receptor (Homo sapiens, UniProt Q9UM73, L1196M) as test system: `C[C@@H]1Oc2cc(cnc2N)-c2c(C#N)nn(C)c2CCCOc2ccc(F)cc21`
[A] 0.62

###

biological target: Tyrosine-protein kinase JAK3 (Homo sapiens, UniProt P52333); assay: Inhibition of human recombinant JAK3
Sequence (P52333 whole entry): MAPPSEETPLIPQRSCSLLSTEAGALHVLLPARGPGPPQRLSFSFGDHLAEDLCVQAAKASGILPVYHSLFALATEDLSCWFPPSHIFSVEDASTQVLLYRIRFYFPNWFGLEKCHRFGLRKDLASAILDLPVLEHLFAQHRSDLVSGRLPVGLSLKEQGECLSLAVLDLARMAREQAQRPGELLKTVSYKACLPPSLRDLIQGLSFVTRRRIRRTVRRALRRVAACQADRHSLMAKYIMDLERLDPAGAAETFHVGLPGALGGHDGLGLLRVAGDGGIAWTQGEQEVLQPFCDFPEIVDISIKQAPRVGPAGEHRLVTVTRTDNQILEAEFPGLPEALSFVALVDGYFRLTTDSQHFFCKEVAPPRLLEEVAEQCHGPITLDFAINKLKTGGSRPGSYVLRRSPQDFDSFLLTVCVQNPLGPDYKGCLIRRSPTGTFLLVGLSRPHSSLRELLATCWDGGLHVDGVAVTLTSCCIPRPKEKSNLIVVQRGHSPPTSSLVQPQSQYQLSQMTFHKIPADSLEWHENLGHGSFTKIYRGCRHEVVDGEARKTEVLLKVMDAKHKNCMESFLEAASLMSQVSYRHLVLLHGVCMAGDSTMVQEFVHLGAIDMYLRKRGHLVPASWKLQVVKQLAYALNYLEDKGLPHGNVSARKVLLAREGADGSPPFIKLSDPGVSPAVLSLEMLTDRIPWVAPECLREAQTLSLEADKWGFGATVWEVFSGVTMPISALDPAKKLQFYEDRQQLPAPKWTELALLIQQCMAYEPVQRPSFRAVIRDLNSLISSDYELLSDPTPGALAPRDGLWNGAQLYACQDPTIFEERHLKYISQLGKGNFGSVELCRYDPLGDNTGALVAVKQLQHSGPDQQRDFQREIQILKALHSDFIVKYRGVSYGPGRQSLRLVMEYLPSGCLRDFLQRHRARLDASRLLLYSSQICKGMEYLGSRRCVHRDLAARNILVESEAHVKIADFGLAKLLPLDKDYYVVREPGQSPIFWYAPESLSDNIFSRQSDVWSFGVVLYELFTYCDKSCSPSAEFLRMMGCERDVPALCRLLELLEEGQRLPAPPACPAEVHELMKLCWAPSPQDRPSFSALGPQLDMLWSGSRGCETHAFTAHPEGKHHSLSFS
pIC50: −log10 of the molar value.
measured_parameter: pIC50

{"substance_smiles": "COc1ccc2cc1COC/C=C/COCc1cc(ccc1OCCN1CCCC1)Nc1nccc-2n1", "assay_result": 6.05}

A: COc1ccc2cc1COC/C=C/COCc1cccc(c1)-c1ccnc(n1)N2
B: Cc1cnc2nc1-c1cccc(c1)COC/C=C/COCc1cc(ccc1OCCN1CCCC1)N2
C: OCCN1CCN(c2ccc3cc2COC/C=C/COCc2cccc(c2)-c2ccnc(n2)N3)CC1
[Q] Order the items by recorded pIC50; the first position goes to the largest value. Output spec: a listing of the labels in the requested order.
[A] B, A, C

###

experiment: physchem; conditions: PBS, pH 7
Description: Aqueous solubility of the compound in PBS at pH 7
measured_parameter: solubility (µg/mL)
Could you give me the number in µg/mL? Just the number is fine.

[Q] Can you share its solubility? I mean this compound: `COc1ccc2cc1COC/C=C/COCc1cc(ccc1OCCN1CCCC1)Nc1nccc-2n1`
[A] 60.8

###

molecular target: Tyrosine-protein kinase JAK1 (Homo sapiens, UniProt P23458)
Sequence (P23458 whole entry): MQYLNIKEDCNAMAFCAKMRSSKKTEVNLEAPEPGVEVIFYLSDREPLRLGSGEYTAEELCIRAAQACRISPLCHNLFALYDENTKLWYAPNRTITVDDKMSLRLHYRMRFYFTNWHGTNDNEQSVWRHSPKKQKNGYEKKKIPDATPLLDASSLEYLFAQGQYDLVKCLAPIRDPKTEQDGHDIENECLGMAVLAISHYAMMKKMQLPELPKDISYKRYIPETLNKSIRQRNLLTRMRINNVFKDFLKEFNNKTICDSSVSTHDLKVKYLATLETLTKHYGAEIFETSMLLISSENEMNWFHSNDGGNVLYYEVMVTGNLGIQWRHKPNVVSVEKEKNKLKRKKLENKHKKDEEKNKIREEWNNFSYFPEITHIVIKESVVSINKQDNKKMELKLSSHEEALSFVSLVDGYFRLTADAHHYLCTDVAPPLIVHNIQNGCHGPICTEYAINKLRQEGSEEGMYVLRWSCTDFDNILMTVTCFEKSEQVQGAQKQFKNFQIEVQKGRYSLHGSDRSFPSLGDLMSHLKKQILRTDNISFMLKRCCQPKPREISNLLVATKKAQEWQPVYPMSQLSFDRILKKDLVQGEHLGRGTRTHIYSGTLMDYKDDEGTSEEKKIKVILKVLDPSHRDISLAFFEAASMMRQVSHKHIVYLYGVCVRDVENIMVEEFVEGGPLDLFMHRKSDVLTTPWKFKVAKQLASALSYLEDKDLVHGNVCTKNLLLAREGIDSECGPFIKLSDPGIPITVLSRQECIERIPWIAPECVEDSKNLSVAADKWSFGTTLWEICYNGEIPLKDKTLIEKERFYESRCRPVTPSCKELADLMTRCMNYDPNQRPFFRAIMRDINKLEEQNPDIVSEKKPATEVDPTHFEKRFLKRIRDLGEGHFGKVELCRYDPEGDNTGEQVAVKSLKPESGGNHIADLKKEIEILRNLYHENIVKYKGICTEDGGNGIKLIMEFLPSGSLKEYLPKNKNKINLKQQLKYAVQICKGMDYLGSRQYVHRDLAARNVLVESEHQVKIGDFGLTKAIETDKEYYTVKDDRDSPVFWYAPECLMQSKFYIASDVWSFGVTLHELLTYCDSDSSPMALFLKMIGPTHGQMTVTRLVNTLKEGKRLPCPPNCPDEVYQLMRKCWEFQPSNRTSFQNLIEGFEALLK
measured_parameter: IC50 (µM)
Entry rule: numbers only, all in µM.

[Q] Tyrosine-protein kinase JAK1 (Homo sapiens, UniProt P23458) / IC50 / `CN(C)CCN(C)c1ccc2cc1COC/C=C/COCc1cccc(c1)-c1ccnc(n1)N2` : value?
[A] 3.6
